Listing of entries alongside the reported DR/DR LNA.
# measurement.notes: Probe fluorescence ratio response to linolenic acid relative to ADIFAB2
# Type: binding
# measurement.conditions: response relative to ADIFAB2
# From the text: In an alternate preferred embodiment, the protein is rI-FABP that has Ala substituted for Leu at position 72 (rI-FABP-L72A) with the resulting probe named ADIFAB2. […] ADIFAB2 also has an altered spectral response, making it especially useful for measurements of FFAu in blood samples (Apple et al, Clinical Proteomics, (2004) 1:41-44, U.S. patent application Ser. No. 10/670,958). […] The baseline value for this ratio, measured in the absence of analyte, is designated R0. […]
Could you respond with only the numeric value?

The cases that follow already have their DR/DR LNA on record.
INSERT INTO assay_data (molecule, result) VALUES
  ('11M, 72A (protein, listed as Rattus norvegicus, PEPTIDE (1)...(131) wild-type rat intestinal fatty acid binding protein) AFDGTWKVDRMENYEKFMEKMGINVVKRKLGAHDNLKLTITQEGNKFTVKESSNFRNIDVVFELGVDFAYSAADGTELTGTWTMEGNKLVGKFKRVDNGKELIAVREISGNELIQTYTYEGVEAKRIFKKE', 0.651),
  ('47V3, L72A (protein, listed as Rattus norvegicus, PEPTIDE (1)...(131) wild-type rat intestinal fatty acid binding protein) AFDGTWKVDRNENYEKFMEKMGINVVKRKLGAHDNLKLTITQEGNKVTVKESSNFRNIDVVFELGVDFAYSAADGTELTGTWTMEGNKLVGKFKRVDNGKELIAVREISGNELIQTYTYEGVEAKRIFKKE', 1.01);

For the next question, use this molecule.
May I ask what DR/DR LNA has been recorded for 18G 31F 73L 72A (protein, listed as Rattus norvegicus, PEPTIDE (1)...(131) wild-type rat intestinal fatty acid binding protein) AFDGTWKVDRNENYEKFGEKMGINVVKRKLFAHDNLKLTITQEGNKFTVKESSNFRNIDVVFELGVDFAYSALDGTELTGTWTMEGNKLVGKFKRVDNGKELIAVREISGNELIQTYTYEGVEAKRIFKKE ?
1.235
